Assayed system: D(2) dopamine receptor (Homo sapiens, UniProt P14416)
Sequence (P14416 whole entry): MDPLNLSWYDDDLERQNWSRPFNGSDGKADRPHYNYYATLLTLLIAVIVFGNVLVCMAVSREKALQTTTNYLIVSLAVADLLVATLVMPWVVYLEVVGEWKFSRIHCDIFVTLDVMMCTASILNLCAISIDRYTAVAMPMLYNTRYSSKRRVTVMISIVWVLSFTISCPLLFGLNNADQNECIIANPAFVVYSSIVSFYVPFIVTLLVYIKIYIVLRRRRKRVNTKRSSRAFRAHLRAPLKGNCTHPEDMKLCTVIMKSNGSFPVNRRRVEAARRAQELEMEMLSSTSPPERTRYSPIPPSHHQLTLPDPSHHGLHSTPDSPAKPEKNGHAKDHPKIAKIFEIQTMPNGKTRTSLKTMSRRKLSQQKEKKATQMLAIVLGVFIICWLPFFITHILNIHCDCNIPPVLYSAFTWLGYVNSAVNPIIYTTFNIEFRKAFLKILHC
Run description: Agonist activity at human dopamine receptor D2long expressed in CHO10001 cells assessed as stimulation of incorporation [3H]-thymidine incorporation
Measure: pEC50
pEC50 is a log-scale quantity: -log10 of the concentration expressed in molar.

Identify measured pEC50 obtained with D(2) dopamine receptor (Homo sapiens, UniProt P14416) for COc1ccccc1N1CCN(CCCCNC(=O)/C=C/c2ccc(F)cc2)CC1 .
8.77

====

Assayed system: D(3) dopamine receptor (Homo sapiens, UniProt P35462)
Sequence (P35462 whole entry): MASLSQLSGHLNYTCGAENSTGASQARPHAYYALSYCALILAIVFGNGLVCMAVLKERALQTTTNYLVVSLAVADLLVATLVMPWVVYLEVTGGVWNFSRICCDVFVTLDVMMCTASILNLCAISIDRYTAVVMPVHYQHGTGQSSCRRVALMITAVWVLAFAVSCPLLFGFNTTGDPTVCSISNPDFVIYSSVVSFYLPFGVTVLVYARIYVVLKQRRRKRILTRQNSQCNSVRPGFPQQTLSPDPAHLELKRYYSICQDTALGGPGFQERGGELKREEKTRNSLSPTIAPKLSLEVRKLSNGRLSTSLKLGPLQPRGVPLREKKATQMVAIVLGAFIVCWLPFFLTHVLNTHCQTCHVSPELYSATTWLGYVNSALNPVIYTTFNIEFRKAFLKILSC
Run description: Agonist activity at human dopamine D3 receptor expressed in CHO dhfr-negative cells assessed as stimulation of [3H]-thymidine incorporation
Assay type: functional, cell-based
Measure: pEC50
pEC50 is a log-scale quantity: -log10 of the concentration expressed in molar.

Identify measured pEC50 obtained with D(3) dopamine receptor (Homo sapiens, UniProt P35462) for COc1ccccc1N1CCN(CCCCNC(=O)/C=C/c2ccc(F)cc2)CC1 .
8.41
